run description: forskolin-driven CRE-LacZ activity in PC12 – cell-based, CRE-LacZ reporter, forskolin-stimulated, primary screen (AID 1146);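 also: PC12 cells with 6xCRE LacZ reporter stimulated by forskolin 10 µM; beta-galactosidase reporter signal reflecting CREB driven transcription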
applied conditions: luminescence, 4.5 h, higher = more signal, called active from +8 up or from −8 down
quantity name: z-score

compound: C=C(C)[C@@H]1CC=C(C(O)C2C=CC3C(=O)N(Cc4ccccc4)C(=O)C3N2n2cnnc2)CC1 (stereo partly specified)
quantity name: z-score
numeric readout: -0.0578

compound: CCCNC(=O)[C@@]1(C)c2ccccc2C(=O)N(Cc2ccc(OC(F)(F)F)cc2)[C@H]1c1ccc(CO)cc1
quantity name: z-score
numeric readout: -0.326

compound: C=CCC(OC(C)=O)[C@@H]1[C@@H](N(Cc2cc3ccccc3o2)C(=O)c2cccc3ccccc23)c2cc(OCCCO)ccc2N1C(=O)Cc1ccc(OC)cc1 (stereo partly specified)
quantity name: z-score
numeric readout: 0.496

compound: CCOC(=O)C[C@H]1[C@H](OC(=O)c2ccc(C(=O)c3ccccc3)cc2)[C@@H](NC(=O)c2ccc3ccccc3n2)c2cc(OCCCO)ccc2N1C(=O)c1ccc2ccccc2n1
quantity name: z-score
numeric readout: -1.22

compound: COc1ccc([Si](C)(C)[C@H]2[C@H](CCO)O[C@@]3(C(=O)N(Cc4ccccc4)c4ccc(N5C(=O)COc6ccccc65)cc43)[C@@H]2C)cc1
quantity name: z-score
numeric readout: -0.81

compound: COc1cc(NN2C(C(O)c3ccccc3)C=CC3C(=O)N(c4ccccc4)C(=O)C32)cc(OC)c1OC (stereo unspecified)
quantity name: z-score
numeric readout: -0.557

compound: [N-]=[N+]=Nc1ccccc1[C@@H]1OC(c2ccc(OCCCO)cc2)=N[C@]1(CCS(=O)(=O)c1ccccc1)C(=O)O
quantity name: z-score
numeric readout: -0.0642

compound: C=CCN1C(=O)[C@]2(COC(c3ccc(OCCCO)cc3)=N2)Cc2ccccc21
quantity name: z-score
numeric readout: -1.3

compound: CCCCN1CC=CC23O[C@@H]4C=CCCOC(=O)C4[C@H]2C(=O)N(CCCO)[C@@H]3C1=O (stereo partly specified)
quantity name: z-score
numeric readout: 0.46

compound: C=C(C(=O)CC[C@@H](OC(=O)c1cccnc1)c1ccc(OCCO)cc1)C(C)C
quantity name: z-score
numeric readout: 0.12

compound: COC(=O)c1c(CC[C@@H](CO)NC(=O)Nc2ncn[nH]2)oc(C(=O)Cc2ccccc2)c1C(=O)OC
quantity name: z-score
numeric readout: 0.352

compound: O=P(NCC1(CC2(c3ccccc3)CO2)CC1)(c1ccccc1)c1ccccc1 (stereo unspecified)
quantity name: z-score
numeric readout: 1.13

compound: O=C1OCCC=C[C@H]2OC34C=CCN(c5ccc6ccccc6c5)C(=O)[C@H]3N(CCCCCCO)C(=O)[C@@H]4C12 (stereo partly specified)
quantity name: z-score
numeric readout: 0.771

compound: O=C(CS)NCCCCCNC(=O)[C@H]1C[C@H]2C(=O)N[C@@H](Cc3ccccc3)C(=O)N2[C@H]1c1cccc(OCCO)c1
quantity name: z-score
numeric readout: -0.0595

compound: CCCNC(=O)[C@@]1(c2ccc([N+](=O)[O-])cc2)CC(=O)N(CC23CC4CC(CC(C4)C2)C3)[C@@H]1c1ccc(CO)cc1I
quantity name: z-score
numeric readout: 0.299

compound: CN(C)CCCCCCNC(=O)[C@@H]1C[C@@H]2C(=O)NCC(=O)N2[C@@H]1c1cccc(OCCO)c1
quantity name: z-score
numeric readout: -0.832

compound: [N-]=[N+]=Nc1ccccc1[C@H]1OC(c2ccc(OCCCO)cc2)=N[C@@]1(CCS(=O)(=O)c1ccccc1)C(=O)N1CCOCC1
quantity name: z-score
numeric readout: 0.28

compound: COCCCNC(=O)[C@]1(Cc2ccccc2N=[N+]=[N-])N=C(c2ccc(OCCCO)cc2)O[C@@H]1c1ccccc1CN=[N+]=[N-]
quantity name: z-score
numeric readout: -1.47

compound: CCCC[C@@H]1C[C@H]1[C@@H](NC(=O)c1ccccc1)c1ccc(-c2ccccc2)cc1
quantity name: z-score
numeric readout: 0.31

compound: CC(C)(C)OC(=O)CC[C@@]1(C(=O)NCC(O)CO)N=C(c2ccc(OCCCO)cc2)O[C@@H]1c1ccccc1 (stereo partly specified)
quantity name: z-score
numeric readout: -0.904

compound: [N-]=[N+]=NCc1ccccc1C[C@]1(C(=O)NCC(O)CO)COC(c2ccc(OCCCO)cc2)=N1 (stereo partly specified)
quantity name: z-score
numeric readout: -1.08

compound: O=C(NCCN1CCOCC1)[C@@H]1c2ccccc2C(=O)N(Cc2cc(F)cc(C(F)(F)F)c2)[C@H]1c1ccc(CO)cc1
quantity name: z-score
numeric readout: 0.0284

compound: CS(=O)(=O)CCOC(=O)C1=CC(c2ccc(CO)cc2)=CC(c2cccs2)N(Cc2cccc(OC(F)(F)F)c2)C=C1C(=O)OCCS(C)(=O)=O (stereo unspecified)
quantity name: z-score
numeric readout: -2.12

compound: Cc1ccc(S[C@]2(C(=O)NCCCN(C)C)CC(=O)N(Cc3ccccc3)[C@@H]2c2ccc(CO)cc2)cc1
quantity name: z-score
numeric readout: 0.529

compound: CCOC(=O)N1C(c2ccc(OCCCO)cc2)=NC(C(=O)OC)N1C(=O)OCC (stereo unspecified)
quantity name: z-score
numeric readout: 0.666

compound: COC(=O)[C@@]1(Cc2ccc(OC)cc2)[C@H]2c3cc(C(=O)N4CCCC4)n(C[C@H](O)CO)c3C[C@H]2CN1C(=O)c1ccccc1
quantity name: z-score
numeric readout: 0.294

compound: CN(C)CCCC[C@@H]1NC(=O)[C@H]2C[C@@H](C(=O)NCCCCCNC(=O)CS)[C@@H](c3ccc(O)cc3)N2C1=O
quantity name: z-score
numeric readout: -0.0503

compound: O=C(NCC(O)CO)[C@@]1(Cc2ccccc2)COC(c2ccc(OCCCO)cc2)=N1 (stereo partly specified)
quantity name: z-score
numeric readout: -0.18

compound: O=C1O[C@@H](c2ccccc2)[C@@H](c2ccccc2)N2[C@@H](c3ccc(O)cc3)[C@]3(C(=O)Nc4ccccc43)[C@@H](C(=O)N3CCCCCCC3)[C@H]12
quantity name: z-score
numeric readout: 0.276

compound: CC(C)C[C@@H]1NC(=O)[C@@H]2C[C@H](C(=O)NCCCCN(C)C)[C@H](c3ccc(O)cc3)N2C1=O
quantity name: z-score
numeric readout: -0.0914

compound: CC(C)[C@H]1COC(=O)N1C(=O)[C@H]1[C@@H](c2ccccc2)N(c2ccccc2)O[C@@H]1C
quantity name: z-score
numeric readout: -0.688

* * *

measured on: Luciferin 4-monooxygenase (Photinus pyralis) (UniProt P08659)
Sequence (P08659 whole entry, looked up): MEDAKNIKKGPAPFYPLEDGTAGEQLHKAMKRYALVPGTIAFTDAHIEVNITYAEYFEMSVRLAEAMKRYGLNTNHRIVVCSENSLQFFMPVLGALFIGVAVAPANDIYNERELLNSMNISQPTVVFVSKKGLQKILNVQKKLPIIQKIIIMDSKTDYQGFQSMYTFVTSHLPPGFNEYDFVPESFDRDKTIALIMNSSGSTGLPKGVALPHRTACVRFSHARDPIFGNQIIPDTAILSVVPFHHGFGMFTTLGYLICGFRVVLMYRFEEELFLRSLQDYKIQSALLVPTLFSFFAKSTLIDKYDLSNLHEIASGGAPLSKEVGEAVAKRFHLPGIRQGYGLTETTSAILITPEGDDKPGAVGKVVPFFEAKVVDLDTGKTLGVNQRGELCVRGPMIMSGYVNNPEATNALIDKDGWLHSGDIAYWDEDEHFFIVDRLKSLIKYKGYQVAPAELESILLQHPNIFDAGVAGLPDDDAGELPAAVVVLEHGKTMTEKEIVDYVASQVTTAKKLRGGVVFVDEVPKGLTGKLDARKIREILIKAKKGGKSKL
run description: inhibition of purified Photinus pyralis luciferase – biochemical, luminescence, purified enzyme, 2006 set, primary screen (AID 1141);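 also: cell-free assay with purified firefly luciferase at 100 ng per well in PBS; test concentration not given here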
applied conditions: purified firefly luciferase, SteadyGlo luminescence, 30 min; higher = more signal, called active from +8 up or from −8 down
z-score of -0.3 or higher: true (1). Under -0.3: false (0).

compound: CN(C)CCCCCCNC(=O)[C@@H]1C[C@@H]2C(=O)NCC(=O)N2[C@@H]1c1cccc(OCCO)c1
measured on: Luciferin 4-monooxygenase (Photinus pyralis) (UniProt P08659)
discrete label: false (0)

compound: CN(C)CCCC[C@@H]1NC(=O)[C@@H]2C[C@H](C(=O)NCc3ccc(F)cc3)[C@H](c3cccc(OCCO)c3)N2C1=O
measured on: Luciferin 4-monooxygenase (Photinus pyralis) (UniProt P08659)
discrete label: false (0)

compound: COc1ccccc1CN1C(=O)c2ccccc2[C@](Cc2ccccc2I)(C(=O)NCc2ccccc2)[C@@H]1c1ccc(CO)cc1
measured on: Luciferin 4-monooxygenase (Photinus pyralis) (UniProt P08659)
discrete label: true (1)

compound: COCCCNC(=O)[C@@]1(C)c2ccccc2C(=O)N(Cc2ccccc2)[C@H]1c1ccc(CO)cc1
measured on: Luciferin 4-monooxygenase (Photinus pyralis) (UniProt P08659)
discrete label: true (1)

compound: COCCCNC(=O)[C@]1(Cc2ccccc2N=[N+]=[N-])N=C(c2ccc(OCCCO)cc2)O[C@@H]1c1ccccc1CN=[N+]=[N-]
measured on: Luciferin 4-monooxygenase (Photinus pyralis) (UniProt P08659)
discrete label: false (0)

compound: C=CCN1Cc2ccccc2C[C@@]2(COC(c3ccc(OCCCO)cc3)=N2)C1=O
measured on: Luciferin 4-monooxygenase (Photinus pyralis) (UniProt P08659)
discrete label: false (0)

compound: C=CCC(OC(C)=O)[C@@H]1[C@@H](N(Cc2ccc(-c3ccccc3)cc2)C(=O)c2ccc(C)cc2)c2cc(OCCCO)ccc2N1C(=O)Cc1ccc(OC)cc1 (some centres undefined)
measured on: Luciferin 4-monooxygenase (Photinus pyralis) (UniProt P08659)
discrete label: false (0)

compound: COCCOC(=O)N1C(=O)[C@@]2(c3cc(C#CCCO)ccc31)[C@H](c1ccc(O)cc1)N1[C@H](c3ccccc3)[C@H](c3ccccc3)OC(=O)[C@H]1[C@@H]2C(=O)N1CCCCCCC1
measured on: Luciferin 4-monooxygenase (Photinus pyralis) (UniProt P08659)
discrete label: true (1)

compound: CN(C)CCCN1C(=O)[C@@]2(c3ccc([N+](=O)[O-])cc3)CC(=O)N(C3CCCCC3)[C@@H]2c2ccc(CO)cc21
measured on: Luciferin 4-monooxygenase (Photinus pyralis) (UniProt P08659)
discrete label: true (1)

compound: O=c1cccc(-c2ccc3ccccc3c2)o1
measured on: Luciferin 4-monooxygenase (Photinus pyralis) (UniProt P08659)
discrete label: false (0)

compound: COC(=O)[C@@]1(Cc2ccc(F)cc2)[C@H]2c3cc(C(=O)N(C)C)n(CCCNc4ccc(C(F)(F)F)cc4Cl)c3C[C@H]2CN1C(=O)c1ccccc1
measured on: Luciferin 4-monooxygenase (Photinus pyralis) (UniProt P08659)
discrete label: true (1)

compound: CC(C)N1C(=O)c2ccccc2[C@](C)(C(=O)NCCCN(C)C)[C@@H]1c1ccc(CO)cc1
measured on: Luciferin 4-monooxygenase (Photinus pyralis) (UniProt P08659)
discrete label: false (0)
